# system: GlcNAc(a1-4)Gal(b1-4)GalNAc
# test_description: glycan array binding signal (z-score within array); higher = stronger binding
# assay_conditions: glycan notation: IUPAC condensed, linker removed
About 410 targets per protein were measured; listed, in parts, are those with the strongest signals and a random draw of the rest.
# glycan array binding signal (z-score) per entry

binder	glycan array binding signal (z-score)
Epa11 (Candida glabrata) (protein) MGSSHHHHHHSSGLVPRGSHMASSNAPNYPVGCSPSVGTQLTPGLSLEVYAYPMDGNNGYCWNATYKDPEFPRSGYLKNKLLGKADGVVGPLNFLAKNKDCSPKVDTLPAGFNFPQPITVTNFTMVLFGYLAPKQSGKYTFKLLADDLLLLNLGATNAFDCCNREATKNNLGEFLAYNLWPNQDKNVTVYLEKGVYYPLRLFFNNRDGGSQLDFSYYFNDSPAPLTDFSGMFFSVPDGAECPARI	-0.891
Pwp1 (Candida glabrata) (protein) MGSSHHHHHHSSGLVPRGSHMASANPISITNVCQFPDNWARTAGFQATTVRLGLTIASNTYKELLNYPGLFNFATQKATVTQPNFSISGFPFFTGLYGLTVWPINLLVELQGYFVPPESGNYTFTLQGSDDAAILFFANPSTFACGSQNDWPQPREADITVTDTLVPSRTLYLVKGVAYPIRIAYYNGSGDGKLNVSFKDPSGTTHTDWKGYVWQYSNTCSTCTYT	-1.74
Pbx1CASH domain (Cryptococcus neoformans) (protein) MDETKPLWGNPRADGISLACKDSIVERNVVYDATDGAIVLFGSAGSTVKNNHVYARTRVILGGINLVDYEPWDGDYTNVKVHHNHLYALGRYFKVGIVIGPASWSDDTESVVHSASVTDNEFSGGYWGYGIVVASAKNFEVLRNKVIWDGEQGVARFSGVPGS	0.311
SRS2 (Toxoplasma gondii), O15695 (protein) MATRASLARQKTGAACLAVLTASPSVVAAKPWKRWVGVSVILASAFAVGVSAGPPYRYEPEKFTCRPKKGILSQWVSLLYQVQHNITFACEEATPVPTTLISEEHGLMVCAENMTPEECEANPAPLSAFLPGATKEWVTGDSVLTGLKISVPESQYPANAKSFRVGCRHNTKTGNTCMLTIHVEPRDPAVERQEARCSYTENSTLPKIFVTKDSNTMTLACGPHGAPMPESYTENYCSTPDTCDEKPFTSVIPGYLSKWFFGDPKSPLGARVRIPPEQIPSSPQINYFGCTGPTEGEGPKYNCTVPVPLGGGDPSEGSRPGGGSGGGKRGGGQGGGGSLAGFDFRQGSARHSLPSRMALSASALLAMTALAY	-0.448
Epa6 (Candida glabrata), Q6DTM7_CANGB (protein) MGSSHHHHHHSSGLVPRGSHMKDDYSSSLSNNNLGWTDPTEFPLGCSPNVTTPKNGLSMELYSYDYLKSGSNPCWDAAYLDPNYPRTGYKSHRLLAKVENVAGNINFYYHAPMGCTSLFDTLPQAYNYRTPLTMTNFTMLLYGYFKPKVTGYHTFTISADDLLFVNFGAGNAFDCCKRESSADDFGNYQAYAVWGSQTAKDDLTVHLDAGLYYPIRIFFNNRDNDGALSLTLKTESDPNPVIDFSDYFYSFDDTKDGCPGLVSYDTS	-0.297
